Reference source: PubChem BioAssay AID328

Listed below: T/C values for each entry.
System: BDF1 mice, P388 leukemia ip, median survival T/C
Experiment: NCI In Vivo Anticancer Drug Screen. Data for tumor model P388 Leukemia (intraperitoneal) in B6D2F1 (BDF1) mice
Settings: endpoint: median survival time; dose: 400.0 mg/kg/injection; schedule: Q04DX003 (ip); vehicle: saline; higher = longer survival
Toxic doses and inconclusive results are not listed.

molecule	target-of-assay	T/C
CC(=O)OCC(CO)(CO)CO	BDF1 mice, P388 leukemia ip, median survival T/C	100 % of control
CCOC(=O)CCN1CCOCC1	BDF1 mice, P388 leukemia ip, median survival T/C	108 % of control
O=C(Cn1cc(F)c(=O)[nH]c1=O)N1CCC2(CC1)SSC1(CCN(C(=O)Cn3cc(F)c(=O)[nH]c3=O)CC1)S2	BDF1 mice, P388 leukemia ip, median survival T/C	104 % of control
Nc1noc(N)n1	BDF1 mice, P388 leukemia ip, median survival T/C	104 % of control
O=C1CCN2C=CC=CC2=N1	BDF1 mice, P388 leukemia ip, median survival T/C	95 % of control
N#CC(Nc1ccccc1C(N)=O)c1ccccc1 (stereo unspecified)	BDF1 mice, P388 leukemia ip, median survival T/C	95 % of control
CCSC(C)C	BDF1 mice, P388 leukemia ip, median survival T/C	95 % of control
c1ccc(-c2cscc2-c2ccccc2)cc1	BDF1 mice, P388 leukemia ip, median survival T/C	100 % of control
COC1N(C2CC(O)C(CO)O2)C(=O)NC(=O)C1(F)Br (stereo unspecified)	BDF1 mice, P388 leukemia ip, median survival T/C	150 % of control
CC1(C)C(=O)C(C)(C)C1=NO	BDF1 mice, P388 leukemia ip, median survival T/C	95 % of control
NC(Cc1ccc(O)c(I)c1)C(=O)O (stereo unspecified)	BDF1 mice, P388 leukemia ip, median survival T/C	110 % of control
